system: SF-295 CNS; assay: NCI tumour cell line growth inhibition, 48 h; in the data active = GI50 below about 0.43 µM; inactive = the rest
Hello, when you answer, please use one of the following outcomes: true (1) = active, false (0) = inactive

Below are worked cases with known answers.
molecule: N#C/C(=C/N1CCN(C(=O)c2ccco2)C1=S)C(N)=O
class-assignment: false (0)
//
molecule: O=C(CCN1CCCC1)Nc1ccc2c(NCCCCc3ccccc3)c3ccccc3nc2c1
class-assignment: false (0)
//
molecule: O=C(Nc1ccccc1Cl)c1ccc(NC2=C(Cl)C(=O)N(Cc3ccccc3)C2=O)cc1
class-assignment: false (0)
//
molecule: Fc1ccc(Nc2nc(Nc3ccc(-c4nc5ccccc5[nH]4)cc3)nc(N3CCCC3)n2)cc1
class-assignment: false (0)
//
molecule: Cn1c(=O)c(Cc2ccc(F)cc2F)cc2cnc(NC3CCOCC3)nc21
class-assignment: false (0)

## Input Lab log entry: COc1ccc(C(=O)Nc2cccc(C3CC(=O)c4c(cc(OC)c(OC)c4OC)O3)c2)cc1 (stereo not given) — outcome as called in the assay?
## Output false (0)

## Input Lab log entry: Cc1ccc(/C=C(\C#N)n2nnc3cc(F)c(F)cc32)cc1 — outcome as called in the assay?
## Output false (0)

## Input Lab log entry: CCCCCCCCSC1=CC(=O)C(OC)=C(OC)C1=O — outcome as called in the assay?
## Output false (0)

## Input Lab log entry: O=C1c2cc3c(cc2-c2c1c1ccc([N+](=O)[O-])cc1c(=O)n2CCCCl)OCO3 — outcome as called in the assay?
## Output true (1)

## Input Lab log entry: Cn1cccc1-c1cc(-c2ccc(Br)cc2)nc(N)c1C#N — outcome as called in the assay?
## Output false (0)

* * *

tested on: TK-10 renal; experiment: NCI tumour cell line growth inhibition, 48 h
Collected TGI values appear next to each entry.

Below are worked cases with known answers.
compound: COC(=O)C1Cc2c([nH]c3ccccc23)-c2[nH]c3ccccc3c2CC(NC(C)=O)C(=O)NCC(=O)N1 (stereo not drawn)
attribute-measured: TGI
observed-measurement: > 100 µM

compound: CCCCOC(=O)N[C@H]1CCc2cc(OC)c(OC)c(OC)c2-c2ccc(SC)c(=O)cc21
attribute-measured: TGI
observed-measurement: 52.4 µM

compound: CCCCCCCCCCCCC(Br)C(=O)SCCNC(=O)CCNC(=O)[C@@H](O)C(C)(C)COP(=O)(O)OP(=O)(O)OCC1OC(n2cnc3c(N)ncnc32)C(O)C1OP(=O)(O)O (stereo partly drawn)
attribute-measured: TGI
observed-measurement: > 56.5 µM

## Input Would you kindly share the measured TGI for CCOC(=O)c1cc(-c2ccc(OC)c(OC)c2)cn1C ?
## Output > 10 µM

## Input Would you kindly share the measured TGI for COc1ccccc1NC(=S)N/N=C(/c1ccccc1)c1ccccn1 ?
## Output 18.3 µM

## Input Would you kindly share the measured TGI for COC(=O)C1Cc2c([nH]c3ccccc23)C=N1 (stereo not drawn) ?
## Output > 100 µM

## Input Would you kindly share the measured TGI for COc1ccccc1Nc1nc(-c2cc3cccc(C(F)(F)F)c3oc2=O)cs1 ?
## Output 81.2 µM

## Input Would you kindly share the measured TGI for Cc1nc2c(=O)[nH]c(=O)nc-2n(CCO)c1C ?
## Output > 100 µM

## Input Would you kindly share the measured TGI for CCOc1ccc(N=NC2C(=O)N(C(=O)CC(=O)Nc3ccc(Cl)cc3)N=C2C)cc1 (stereo not drawn) ?
## Output > 100 µM

## Input Would you kindly share the measured TGI for CSC(=S)N/N=C(\C)c1ccccn1 ?
## Output 24.2 µM

## Input Would you kindly share the measured TGI for O=C1NC(=NCc2ccccn2)S/C1=C\c1ccc2ncccc2c1 ?
## Output > 20.2 µM

## Input Would you kindly share the measured TGI for O=c1[nH]c2ccc(CC(=S)N3CCN(c4ccccc4)CC3)cc2s1 ?
## Output > 100 µM

## Input Would you kindly share the measured TGI for COC(=O)c1ccc2c(c1)nc(-c1ccc(Cl)cc1)n2-c1cc(C(C)(C)C)[nH]n1 ?
## Output > 100 µM
